- target-of-assay: BIR-3 domain of XIAP (Homo sapiens, UniProt P98170)
- Sequence (P98170 241-356 limits assumed): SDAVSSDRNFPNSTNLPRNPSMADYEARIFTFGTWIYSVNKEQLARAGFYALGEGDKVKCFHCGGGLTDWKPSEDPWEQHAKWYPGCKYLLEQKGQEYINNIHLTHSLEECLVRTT
- assay-text: Fluorescence polarization binding assay, XIAP BIR-3 domain
- particulars: read-out: IC50 (XIAP); Table 10

| substance-smiles | IC50 |
| --- | --- |
| CC(C)[C@H](NC(=O)CN)C(=O)N1C[C@@H](Oc2ccccc2)C[C@H]1Cc1coc2ccccc12 | > 100 nM |

###

- target-of-assay: BIR-3 domain of XIAP (Homo sapiens)
- assay-text: Fluorescence polarization binding assay, XIAP BIR-3 domain

| molecule | IC50 |
| --- | --- |
| CCC(C)[C@H](NC(=O)[C@H](C)NC)C(=O)N1CCC[C@H]1Cc1c2n(c3ccc(F)cc13)CCn1c-2c(C[C@@H]2CCCN2C(=O)[C@@H](NC(=O)[C@H](C)NC)C(C)CC)c2cc(F)ccc21 (some centres unmarked) [A] | 10 to 100 nM |
| CN[C@@H](C)C(=O)N[C@H](C(=O)N1CCC[C@H]1Cc1c(-c2ccc(-c3c(C[C@@H]4CCCN4C(=O)[C@@H](NC(=O)[C@H](C)NC)C(C)(C)C)c4ccc(F)cc4n3CCO)cc2)n(CCO)c2cc(F)ccc12)C(C)(C)C [N] | 10 to 100 nM |
| CN[C@@H](C)C(=O)N[C@H](C(=O)N1C[C@@H](OC(C)=O)C[C@H]1Cc1c[nH]c2ccccc12)C(C)C [F] | 10 to 100 nM |
| CN[C@@H](C)C(=O)N[C@H](C(=O)N1CCC[C@H]1Cc1cn(CCOCCn2cc(C[C@@H]3CCCN3C(=O)[C@@H](NC(=O)[C@H](C)NC)C3CCCCC3)c3ccccc32)c2ccccc12)C1CCCCC1 [K] | > 100 nM |
| CN[C@@H](C)C(=O)N[C@H](C(=O)N1C[C@@H](OC(C)=O)C[C@H]1Cc1c[nH]c2ccccc12)[C@@H](C)O [D] | > 1000 nM |
